System: WNK3
Conditions: concentration: 1 μM, replicates: in singlicate; n = 1;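 also: KINOMEscan kinase panel screen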
measurement_name: %Inh (%)
All answers are understood in %, so give the number only.

# count of solved cases: 4
Cc1ccc(C(=O)N2CC[C@@H](O)C2)cc1-n1c(C)cc(OCc2ccc(F)cc2F)c(Br)c1=O
0
CC(=O)Nc1nc2cnc(Nc3cc(NC(=O)c4cccc(C5(C#N)CC5)c4Cl)ccc3C)nc2s1
0
O=C(NC1CCN(c2ccnc(Nc3ccc(F)cc3)n2)C1)c1cc2ccccc2s1 (stereo not shown) [GSK1379716]
33
Cl.c1ccc(-c2ccc3c(Nc4ccc5[nH]ccc5c4)ccnc3c2)nc1 [GW440138]
35

Switching to the query record.
Give the reported %Inh for COc1cc(Nc2nccc(-c3c(-c4cccc(NC(=O)c5c(F)cccc5F)c4)nn4ccccc34)n2)cc(OC)c1OC [GSK323521] (system: WNK3).
54

* * *

System: RPS6KA5(Kin.Dom.2-C-terminal)
Settings: concentration: 1 μM, replicates: in singlicate; n = 1
If the reported %Inh equals or exceeds 5%, assign satisfied. If not, assign not satisfied.

Previously resolved entries follow.
Cc1ccc(F)c(C(=O)Nc2cccc(-c3nn4ccccc4c3-c3ccnc(Nc4cccc(F)c4)n3)c2)c1F
not satisfied
CC(C)c1nc(-c2cccc(NS(=O)(=O)c3c(F)cccc3F)c2F)c(-c2ccnc(Nc3ccc(N4CCOCC4)nc3)n2)s1
not satisfied
O=C(Nc1n[nH]c2nc(-c3ccc(O)cc3)ccc12)C1CC1
satisfied
COc1cccc(C(=O)Nc2cccc(Oc3ccc4nc(NC(=O)C5CC5)cn4n3)c2)c1
satisfied
O=C(Nc1cccc(-c2nn3ccccc3c2-c2ccnc(Nc3cccc(F)c3)n2)c1)c1c(F)ccc(F)c1Cl
satisfied
CCCCc1nn2ncccc2c1-c1ccnc(Nc2ccc(N3CCN(C)CC3)cc2)n1
satisfied

Entry Cc1ccc(C)c(NC(=O)NC2CCN(c3ccnc(Nc4ccc(F)cc4)n3)C2)c1 (centres unmarked) : is its %Inh no less than 5%?
satisfied

* * *

Tested on: SGK
Conditions: concentration: 1 μM, replicates: in singlicate; n = 1
Could you label it met if measured %Inh is 10% or higher, and not met otherwise?

Recorded results for 10 molecules are shown here.
c1ccc(-c2n[nH]cc2Nc2ccnc3ccccc23)nc1
met
Fc1ccc(-c2ncn(C3CCNCC3)c2-c2ccnc(Oc3ccc(-c4ccccc4)cc3)n2)cc1
met
CCS(=O)(=O)c1ccc(OC)c(Nc2nccc(-c3c(-c4cccc(NC(=O)c5c(F)cccc5F)c4)nn4ncccc34)n2)c1
not met
COc1cc(Nc2ncc3c(C)nc(-c4cc5ccccc5[nH]4)n3n2)cc(OC)c1OC
not met
c1ccc(-c2cnc3nccnn23)cc1
not met
FC(F)(F)c1ccc(/C=C/c2cncnc2Nc2ccc3[nH]c(Cc4ccccc4)nc3c2)cc1
not met
COc1cc2c(cc1OCCN1CCNCC1)ncc1c3ccc(C#N)cc3[nH]c21
met
CNC(=O)c1ccccc1Nc1nc(Nc2ccc(N3CCOCC3)cc2)ncc1Cl.Cl
met
O=C(Nc1cccc(Oc2ccc3nc(NC(=O)C4CC4)cn3n2)c1)c1ccccc1C(F)(F)F
not met
Cc1ccc(C(=O)Nc2ccc(Nc3ccnc4cc(-c5nccs5)ccc34)cc2O)cc1.Cl
met

With those in mind, consider the next molecule.
Determine whether measured %Inh meets or exceeds 10% for COc1cccc(C(=O)Nc2cccc(Oc3ccc4nc(NC(=O)C5CC5)cn4n3)c2)c1
not met
